Target: eqBuChE (Equus caballus, UniProt P81908)
Sequence (P81908 whole entry): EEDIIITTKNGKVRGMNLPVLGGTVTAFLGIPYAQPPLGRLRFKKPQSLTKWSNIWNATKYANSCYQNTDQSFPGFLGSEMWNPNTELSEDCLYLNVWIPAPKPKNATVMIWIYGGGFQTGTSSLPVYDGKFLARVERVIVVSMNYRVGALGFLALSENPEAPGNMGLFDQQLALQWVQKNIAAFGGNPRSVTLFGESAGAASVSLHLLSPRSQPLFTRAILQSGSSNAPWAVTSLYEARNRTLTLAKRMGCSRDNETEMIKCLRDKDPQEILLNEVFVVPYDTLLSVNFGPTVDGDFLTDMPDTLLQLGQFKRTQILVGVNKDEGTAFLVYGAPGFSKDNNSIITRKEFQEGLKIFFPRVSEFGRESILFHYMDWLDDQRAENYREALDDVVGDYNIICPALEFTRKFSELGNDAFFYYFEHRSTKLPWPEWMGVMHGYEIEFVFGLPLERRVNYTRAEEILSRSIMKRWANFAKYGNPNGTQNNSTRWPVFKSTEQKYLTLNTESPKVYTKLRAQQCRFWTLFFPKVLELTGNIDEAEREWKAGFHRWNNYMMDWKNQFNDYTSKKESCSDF
Assay: biochemical
Details: read-out: eqBuChE IC50 [μM] ± sem
The label rule met is reserved for IC50 strictly under 2 µM; rule not met covers values equal to or above it.

Check out these entries, answers already filled in.
1) CCCN(C)Cc1ccccc1COC1CCN(Cc2cc3ccccc3o2)CC1 = rule not met
2) CCCN(C)Cc1cccc(COC2CCN(Cc3ccccc3)CC2)c1 = rule not met
3) CCCN(C)Cc1ccc(-c2ccc(COC3CCN(Cc4cc5ccccc5o4)CC3)cc2)cc1 = rule met
4) CCCN(C)Cc1ccc(-c2ccc(COC3CCN(Cc4ccccc4)CC3)cc2)cc1 = rule met
5) CCCN(C)Cc1ccc2cc(COC3CCN(Cc4ccccc4)CC3)ccc2c1 = rule met
6) CCCN(C)Cc1ccc2cc(COC3CCN(Cc4cc5ccccc5o4)CC3)ccc2c1 = rule met
7) CCCN(C)c1ccc(OC2CCN(Cc3ccccc3)CC2)cc1 = rule met

# ---- query compound ----
Query: Does this compound meet the criterion IC50 < 2 µM? CCCN(C)Cc1ccccc1COC1CCN(Cc2ccccc2)CC1
Result: rule not met

* * *

Molecular target: hH3R (Homo sapiens, UniProt Q9Y5N1)
Construct: expressed in transfected cells; membrane fractions
Sequence (Q9Y5N1 whole entry): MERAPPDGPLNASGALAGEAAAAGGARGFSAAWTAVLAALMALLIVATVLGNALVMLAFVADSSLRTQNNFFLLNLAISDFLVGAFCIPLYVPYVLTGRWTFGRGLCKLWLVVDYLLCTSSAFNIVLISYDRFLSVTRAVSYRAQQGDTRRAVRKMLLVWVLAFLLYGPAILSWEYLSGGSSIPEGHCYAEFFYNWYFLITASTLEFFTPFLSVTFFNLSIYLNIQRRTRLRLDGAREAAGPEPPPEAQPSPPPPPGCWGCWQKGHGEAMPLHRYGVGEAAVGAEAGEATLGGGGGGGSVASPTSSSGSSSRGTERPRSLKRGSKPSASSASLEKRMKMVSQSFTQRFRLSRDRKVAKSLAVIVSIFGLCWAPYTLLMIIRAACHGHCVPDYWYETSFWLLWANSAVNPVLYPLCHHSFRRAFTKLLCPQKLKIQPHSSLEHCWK
Assay: hH3R radioligand displacement assay in membrane fractions of HEK-293 cells
Assay type: binding
Settings: [3H]Nα-methylhistamine displacement, HEK-293 membranes; 95% CI in brackets
Record form. Attribute: Ki. Fill in for each entry.
Answers are plain numbers, in nM.

Reference set (3 entries):
1. CCCN(C)Cc1ccc(COC2CCN(Cc3cc4ccccc4o3)CC2)cc1 = 144
2. CCCN(C)Cc1ccc2cc(COC3CCN(Cc4ccccc4)CC3)ccc2c1 = 12.5
3. CCCN(C)Cc1ccc(COC2CCN(Cc3ccccc3)CC2)cc1 = 77.1

What the record says about CCCN(C)Cc1ccc2cc(COC3CCN(Cc4cc5ccccc5o4)CC3)ccc2c1 : Ki is 44.1

* * *

Record form. Attribute: Kb. Fill in for each entry.
Biological target: gpH3R (Cavia porcellus)
Construct: isolated guinea pig ileum electrically stimulated to contraction; from tissue; host or cells: distal ileum of male guinea pigs
Sequence (Q9JI35 whole entry): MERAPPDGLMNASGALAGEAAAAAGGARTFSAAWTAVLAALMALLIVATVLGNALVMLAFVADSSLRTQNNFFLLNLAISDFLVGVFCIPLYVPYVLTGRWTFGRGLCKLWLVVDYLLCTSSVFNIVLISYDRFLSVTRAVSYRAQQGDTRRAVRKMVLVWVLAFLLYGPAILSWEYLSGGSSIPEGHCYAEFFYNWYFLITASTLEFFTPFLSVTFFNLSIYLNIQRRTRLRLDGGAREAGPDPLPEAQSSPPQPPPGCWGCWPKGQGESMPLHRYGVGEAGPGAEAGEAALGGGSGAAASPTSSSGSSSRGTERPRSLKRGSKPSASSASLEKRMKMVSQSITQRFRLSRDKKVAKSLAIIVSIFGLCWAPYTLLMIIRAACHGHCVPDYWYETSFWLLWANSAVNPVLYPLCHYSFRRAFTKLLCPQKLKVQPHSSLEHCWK
Assay: Ex vivo gpH3R screening on isolated guinea pig ileum electrically stimulated to contraction
Numbers only, in nM.

Reference set (8 entries):
1) CCCN(C)Cc1ccc(-c2ccc(COC3CCN(Cc4ccccc4)CC3)cc2)cc1 [ADS029] = 61.7
2) CCCN(C)Cc1cccc(COC2CCN(Cc3ccccc3)CC2)c1 [ADS025] = 129
3) CCCN(C)Cc1ccc2cc(COC3CCN(Cc4ccccc4)CC3)ccc2c1 [ADS031] = 28.8
4) CCCN(C)Cc1ccc(-c2ccc(COC3CCN(Cc4cc5ccccc5o4)CC3)cc2)cc1 [ADS030] = 257
5) CCCN(C)Cc1ccc(COC2CCN(Cc3ccccc3)CC2)cc1 [ADS022] = 38
6) CCCN(C)Cc1ccccc1COC1CCN(Cc2ccccc2)CC1 [ADS027] = 151
7) CCCN(C)Cc1ccc2cc(COC3CCN(Cc4cc5ccccc5o4)CC3)ccc2c1 [ADS032] = 87.1
8) CCCN(C)Cc1ccc(COC2CCN(Cc3cc4ccccc4o3)CC2)cc1 [ADS024] = 26.9

What the record says about CCCN(C)Cc1ccccc1COC1CCN(Cc2cc3ccccc3o2)CC1 [ADS028] : Kb is 126

* * *

Target: eeAChE (Electrophorus electricus)
Construct: purchased Sigma–Aldrich (Steinheim, Germany)
Test: biochemical
Details: read-out: eeAChE % inh. (10μM) ± SD
Record form. Attribute: inhibition at 10 µM. Fill in for each entry.
Give bare numbers, in %.

Reference set (5 entries):
1) CCCN(C)Cc1ccc(COC2CCN(Cc3cc4ccccc4o3)CC2)cc1 = 36.2
2) CCCN(C)Cc1ccccc1COC1CCN(Cc2ccccc2)CC1 = 4.8
3) CCCN(C)Cc1ccc2cc(COC3CCN(Cc4cc5ccccc5o4)CC3)ccc2c1 = 28.1
4) CCCN(C)Cc1ccccc1COC1CCN(Cc2cc3ccccc3o2)CC1 = 2.3
5) CCCN(C)Cc1ccc(-c2ccc(COC3CCN(Cc4ccccc4)CC3)cc2)cc1 = 69

Record inhibition at 10 µM for all entries; do not skip any.
1. CCCN(C)Cc1ccc(COC2CCN(Cc3ccccc3)CC2)cc1
2. CCCN(C)Cc1cccc(COC2CCN(Cc3cc4ccccc4o3)CC2)c1
3. CCCN(C)Cc1ccc(-c2ccc(COC3CCN(Cc4cc5ccccc5o4)CC3)cc2)cc1
4. CCCN(C)Cc1ccc2cc(COC3CCN(Cc4ccccc4)CC3)ccc2c1
5. CCCN(C)Cc1cccc(COC2CCN(Cc3ccccc3)CC2)c1
6. CCCN(C)c1ccc(OC2CCN(Cc3cc4ccccc4o3)CC2)cc1
7. CCCN(C)c1ccc(OC2CCN(Cc3ccccc3)CC2)cc1

Result:
1. 61.6
2. 5.5
3. 31.2
4. 84.2
5. 53.7
6. 40.3
7. 33.4

* * *

Biological target: eqBuChE (Equus caballus)
Assay: biochemical
Conditions: read-out: eqBuChE % inh. (10 μM) ± SD
Kind request: treat 80% as inclusive, so inhibition at 10 µM at 80% or higher is yes (1), anything lower is no (0).

Check out these entries, answers already filled in.
1. CCCN(C)Cc1ccc(-c2ccc(COC3CCN(Cc4ccccc4)CC3)cc2)cc1 = yes (1)
2. CCCN(C)Cc1ccc(COC2CCN(Cc3cc4ccccc4o3)CC2)cc1 = no (0)
3. CCCN(C)Cc1ccc2cc(COC3CCN(Cc4cc5ccccc5o4)CC3)ccc2c1 = yes (1)
4. CCCN(C)Cc1ccc2cc(COC3CCN(Cc4ccccc4)CC3)ccc2c1 = yes (1)
5. CCCN(C)Cc1cccc(COC2CCN(Cc3cc4ccccc4o3)CC2)c1 = no (0)
6. CCCN(C)Cc1ccc(-c2ccc(COC3CCN(Cc4cc5ccccc5o4)CC3)cc2)cc1 = yes (1)
7. CCCN(C)Cc1ccccc1COC1CCN(Cc2ccccc2)CC1 = no (0)
8. CCCN(C)c1ccc(OC2CCN(Cc3ccccc3)CC2)cc1 = yes (1)
9. CCCN(C)c1ccc(OC2CCN(Cc3cc4ccccc4o3)CC2)cc1 = no (0)
10. CCCN(C)Cc1cccc(COC2CCN(Cc3ccccc3)CC2)c1 = no (0)

# ---- query compound ----
Query: Item CCCN(C)Cc1ccc(COC2CCN(Cc3ccccc3)CC2)cc1 with inhibition at 10 µM of 80% or above?
Result: no (0)

* * *

Biological target: eeAChE (Electrophorus electricus, UniProt O42275)
Construct: purchased Sigma–Aldrich (Steinheim, Germany)
Sequence (O42275 24-633): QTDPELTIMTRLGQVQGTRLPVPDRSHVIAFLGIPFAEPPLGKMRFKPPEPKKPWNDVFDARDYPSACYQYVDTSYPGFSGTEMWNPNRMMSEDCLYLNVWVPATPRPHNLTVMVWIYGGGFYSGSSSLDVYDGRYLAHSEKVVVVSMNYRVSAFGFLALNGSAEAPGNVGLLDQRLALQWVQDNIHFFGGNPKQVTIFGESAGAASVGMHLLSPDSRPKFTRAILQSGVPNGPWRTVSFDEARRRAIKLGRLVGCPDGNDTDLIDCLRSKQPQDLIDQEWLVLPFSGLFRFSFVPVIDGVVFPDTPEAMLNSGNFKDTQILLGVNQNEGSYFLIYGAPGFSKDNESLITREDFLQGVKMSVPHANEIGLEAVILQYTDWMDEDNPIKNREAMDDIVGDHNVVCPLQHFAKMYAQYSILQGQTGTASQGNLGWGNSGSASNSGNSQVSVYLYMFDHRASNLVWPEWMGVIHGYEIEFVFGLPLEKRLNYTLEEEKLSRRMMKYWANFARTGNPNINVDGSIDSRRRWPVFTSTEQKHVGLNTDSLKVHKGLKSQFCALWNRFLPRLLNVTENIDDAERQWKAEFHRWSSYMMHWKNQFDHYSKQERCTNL
Experiment: biochemical
Conditions: read-out: eeAChE IC50 (μM) ± sem
TEST_READOUT: IC50 (µM)
One number for each entry, in µM.

Record IC50 for all entries; do not skip any.
1. CCCN(C)Cc1ccc(-c2ccc(COC3CCN(Cc4ccccc4)CC3)cc2)cc1
2. CCCN(C)Cc1ccc2cc(COC3CCN(Cc4ccccc4)CC3)ccc2c1
3. CCCN(C)Cc1ccc(COC2CCN(Cc3ccccc3)CC2)cc1
4. CCCN(C)Cc1cccc(COC2CCN(Cc3ccccc3)CC2)c1

Result:
[3.71, 1.54, 6.89, 9.94]
